system_under_test: UniProtKB Q15858
assay_info: Tritiated sulfonamide competitive binding to membranes from cells expressing hNav1.7 and the β1 subunit
condition_description: read-out: Ligand Binding Assay; 100 pM [3H]compound, membranes with hNav1.7 and β1 subunit, 18 h, room temperature
Where a name gives a salt, the structure may show the parent alone.
1 (yes) if IC50 is below 6 nM. 0 (no) if not; exact matches included in 0 (no).

// known answers, use as guide
{"columns": ["compound", "category_label"],
 "data": [
  ["CS(=O)(=O)NC(=O)c1cc(C2CC2)c(O[C@@H]2CCCN(S(C)(=O)=O)C2)cc1F", "0 (no)"],
  ["O=C(NS(=O)(=O)C1CC1)c1cc(C2CC2)c(CN2CCO[C@@H](Cc3ccc(Cl)c(Cl)c3)C2)cc1F", "0 (no)"],
  ["CS(=O)(=O)NC(=O)c1cc(C2CC2)c(OCC2CCN(Cc3ccc(Br)cc3C(F)(F)F)CC2)cc1F", "1 (yes)"],
  ["Cc1ccc(CN2CCC[C@@H](Oc3cc(F)c(C(=O)NS(C)(=O)=O)cc3C3CC3)C2)c(C)c1 [Example 423, trifluoroacetic acid salt]", "1 (yes)"],
  ["C[C@@H](c1cc(Cl)cc(Cl)c1)N1CCC(COc2cc(F)c(C(=O)NS(=O)(=O)N3CCC3)cc2C2CC2)CC1 (single isomer, unassigned)", "1 (yes)"],
  ["O=C(NS(=O)(=O)N1CCC1)c1cc(C2CC2)c(CN2CCC[C@@H](Oc3cc(Cl)cc(Cl)c3)C2)cc1F", "0 (no)"]
]}

IC50 strictly < 6 nM for this compound? O=C(NS(=O)(=O)N1CCC1)c1cc(C2CC2)c(O[C@@H]2CCCN(c3ccccn3)C2)cc1F
0 (no)

IC50 strictly < 6 nM for this compound? CS(=O)(=O)NC(=O)c1cc(C2CC2)c(OCCC2CCN(Cc3cc(Cl)cc(Cl)c3)CC2)cc1F [Example 302, trifluoroacetic acid salt]
1 (yes)

====

system_under_test: hNav1.7 (Homo sapiens (Human), UniProt Q15858)
Sequence (Q15858 other isoform, or with tags, fused parts or gaps): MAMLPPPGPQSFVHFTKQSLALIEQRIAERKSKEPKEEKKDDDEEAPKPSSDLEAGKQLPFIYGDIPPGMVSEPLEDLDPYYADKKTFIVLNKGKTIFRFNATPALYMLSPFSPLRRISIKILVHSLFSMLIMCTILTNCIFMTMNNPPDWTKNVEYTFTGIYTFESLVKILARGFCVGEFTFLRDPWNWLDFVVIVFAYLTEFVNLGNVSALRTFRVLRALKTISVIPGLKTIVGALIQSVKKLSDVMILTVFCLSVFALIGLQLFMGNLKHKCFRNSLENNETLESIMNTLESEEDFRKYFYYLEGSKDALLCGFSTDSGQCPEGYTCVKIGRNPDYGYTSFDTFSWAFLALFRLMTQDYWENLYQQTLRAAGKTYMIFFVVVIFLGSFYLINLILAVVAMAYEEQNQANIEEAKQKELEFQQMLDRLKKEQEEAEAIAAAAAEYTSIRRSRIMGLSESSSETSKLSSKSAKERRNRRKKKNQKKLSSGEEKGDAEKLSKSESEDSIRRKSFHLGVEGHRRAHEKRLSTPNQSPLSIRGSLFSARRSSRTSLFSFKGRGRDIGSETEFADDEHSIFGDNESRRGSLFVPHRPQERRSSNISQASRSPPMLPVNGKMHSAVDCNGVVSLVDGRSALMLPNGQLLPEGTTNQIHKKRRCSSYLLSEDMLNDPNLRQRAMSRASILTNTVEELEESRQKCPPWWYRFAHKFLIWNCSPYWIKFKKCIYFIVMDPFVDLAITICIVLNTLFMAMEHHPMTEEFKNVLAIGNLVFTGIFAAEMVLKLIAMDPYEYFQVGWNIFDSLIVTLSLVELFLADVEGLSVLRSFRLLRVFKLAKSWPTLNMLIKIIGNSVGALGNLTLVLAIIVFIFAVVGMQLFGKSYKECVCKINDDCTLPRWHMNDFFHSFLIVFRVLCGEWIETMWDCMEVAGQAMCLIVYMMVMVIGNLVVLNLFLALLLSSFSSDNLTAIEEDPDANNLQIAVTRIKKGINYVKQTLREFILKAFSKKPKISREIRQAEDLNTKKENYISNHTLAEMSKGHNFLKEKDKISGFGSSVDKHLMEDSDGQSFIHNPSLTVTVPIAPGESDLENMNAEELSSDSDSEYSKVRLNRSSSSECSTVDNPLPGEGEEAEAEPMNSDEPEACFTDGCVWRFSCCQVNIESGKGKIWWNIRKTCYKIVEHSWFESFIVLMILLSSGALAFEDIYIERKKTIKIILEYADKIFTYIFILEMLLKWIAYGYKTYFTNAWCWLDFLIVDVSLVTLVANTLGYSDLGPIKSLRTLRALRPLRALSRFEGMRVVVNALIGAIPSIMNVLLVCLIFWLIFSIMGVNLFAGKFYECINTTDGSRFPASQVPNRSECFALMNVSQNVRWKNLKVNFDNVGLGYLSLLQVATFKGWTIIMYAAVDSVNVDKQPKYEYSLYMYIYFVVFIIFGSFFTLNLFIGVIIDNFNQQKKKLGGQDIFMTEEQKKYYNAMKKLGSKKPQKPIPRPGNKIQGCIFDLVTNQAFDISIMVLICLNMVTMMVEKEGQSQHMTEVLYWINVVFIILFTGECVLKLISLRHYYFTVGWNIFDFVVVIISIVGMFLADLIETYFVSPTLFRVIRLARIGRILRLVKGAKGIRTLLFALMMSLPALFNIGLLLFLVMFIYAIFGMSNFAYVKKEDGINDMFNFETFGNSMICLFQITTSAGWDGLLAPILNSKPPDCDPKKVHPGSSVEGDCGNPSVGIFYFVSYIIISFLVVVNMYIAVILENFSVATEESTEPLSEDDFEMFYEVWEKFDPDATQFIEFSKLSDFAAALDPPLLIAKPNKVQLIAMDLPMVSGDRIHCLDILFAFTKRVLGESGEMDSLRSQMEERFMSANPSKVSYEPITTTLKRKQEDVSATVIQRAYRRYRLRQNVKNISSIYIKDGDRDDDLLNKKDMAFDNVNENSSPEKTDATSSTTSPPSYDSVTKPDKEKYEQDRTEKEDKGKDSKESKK
Sequence (Q07699 19-218 partner): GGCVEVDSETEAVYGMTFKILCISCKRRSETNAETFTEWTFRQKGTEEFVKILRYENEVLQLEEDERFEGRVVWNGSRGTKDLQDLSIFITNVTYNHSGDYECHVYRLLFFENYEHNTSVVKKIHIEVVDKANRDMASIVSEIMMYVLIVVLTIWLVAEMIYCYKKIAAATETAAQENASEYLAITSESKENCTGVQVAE
assay_info: Tritiated sulfonamide competitive binding to membranes from cells expressing hNav1.7 and the β1 subunit;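 further: Filter-bound radioactivity counted by liquid scintillation, nonspecific binding defined with excess unlabelled ligand, IC50 fitted to percent inhibition of specific binding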
condition_description: read-out: Ligand Binding Assay; 100 pM [3H]compound, membranes with hNav1.7 and β1 subunit, 18 h, room temperature
t if IC50 is below 30 nM. f if not; exact matches included in f.

// known answers, use as guide
{"columns": ["compound", "category_label"],
 "data": [
  ["CS(=O)(=O)NC(=O)c1cc(C2CC2)c(OCC2CN([C@@H](c3ccccc3)c3cc(Cl)cc(Cl)c3)C2)cc1F [Example 142]", "t"],
  ["CS(=O)(=O)NC(=O)c1cc(C2CC2)c(OCC2CN([C@H](c3ccccc3)c3ccc(S(C)(=O)=O)cc3)C2)cc1F [Example 96]", "f"]
]}

IC50 strictly < 30 nM for this compound? O=C(NS(=O)(=O)C1CC1)c1cc(C2CC2)c(OCC2CCN(C(=O)c3ccc(Cl)c(Cl)c3)CC2)cc1F [Example 233]
f

====

system_under_test: UniProt:Q15858
assay_info: Tritiated sulfonamide competitive binding to membranes from cells expressing hNav1.7 and the β1 subunit
Hi there, I'd appreciate the recorded pIC50 for every entry that follows.
Give bare numbers, as −log10 of the molar value.

{"columns": ["compound_string", "pIC50"],
 "data": [
  ["O=C(NS(=O)(=O)C1CC1)c1cc(C2CC2)c(O[C@@H]2CCCN(Cc3ccc(F)cc3)C2)cc1F", 7.95],
  ["O=C(NS(=O)(=O)N1CCC1)c1cc(C2CC2)c(O[C@@H]2CCCN(CC3CCCCC3)C2)cc1F", 7.32],
  ["O=C(NS(=O)(=O)C1CC1)c1cc(C2CC2)c(CN2CCC(Oc3ccc(C(F)(F)F)cc3)CC2)cc1F", 8.11]
]}

Observed pIC50 on UniProt:Q15858 for O=C(NS(=O)(=O)C1CC1)c1cc(C2CC2)c(CN2CCC(Oc3ccccc3C(F)(F)F)CC2)cc1F , please.
7.06
